- target: T1, CD137-hisFc fusion protein (Sino Biological Cat 10041-H03H) (human, UniProt Q07011 24-186)
- T1 construct: Bought; also called recombinant human CD137 (fused with human Fc and His tag); not shown: His tag and human Fc
- experimentNotes: BLI Octet, Fab;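 further: fab fragments expressed in E. coli, binding to human CD137 measured on Octet RED96, kinetics fitted with a 1:1 Langmuir model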
Exercise: state measured koff for each of the binders provided.

Exam item: Output measured koff for this item: Fab 4217 (Fab, V domains shown, Fab from E. coli; also called VH10/VL10) VH: EVQLVESGGGLVQPGGSLRLSCAASGYSISSGYYWDWIRQAPGKGLEWVSSISGDGDTTYYADSVKGRFTISRDNSKNTLYLQLNSLRAEDTAVYYCAREYYGYGYALDYWGQGTLVTVSS VL: DIQLTQSPSSLSASVGDRVTITCRASQGISSYLAWYQQKPGKAPKLLIYDASSLESGVPSRFSGSGSGTDFTLTISSLQPEDFATYYCQQYYSTPLTFGQGTKVEIKR
Marked response: 0.055 s⁻¹

Exam item: Given the binder Fab 5351 (Fab, V domains shown, Fab from E. coli; also called VH25/VL25) VH: EVQLVESGGGLVQPGGSLRLSCAASGYSITSGHYWAWIRQAPGKGLEWVSSISGYGSTTYYADSVKGRFTISRDNSKNTLYLQLNSLRAEDTAVYYCARGGSDAVLGDWFAYWGQGTLVTVSS VL: DIQLTQSPSSLSASVGDRVTITCRASQGIGSFLAWYQQKPGKAPKLLIYDASNLETGVPSRFSGSGSGTDFTLTISSLQPEDFATYYCQQGYYLWTFGQGTKVEIKR , write its reported koff.
Marked response: 0.0034 s⁻¹

Exam item: // fetch koff given entry Fab 5370 (Fab, V domains shown, Fab from E. coli; also called VH32/VL32) VH: EVQLVESGGGLVQPGGSLRLSCAASGFSLSTSGVAVAWIRQAPGKGLEWLALIDWDDDKRYSTSLKSRLTISRDNSKNTLYLQLNSLRAEDTAVYYCAREGSTTVVGDWFDYWGQGTLVTVSS VL: DIQLTQSPSSLSASVGDRVTITCRASQGIGTYLAWYQQKPGKAPKLLIYDASNRATGIPSRFSGSGSGTDFTLTISSLQPEDFATYYCQQGYSLWTFGQGTKVEIKR
Marked response: 0.001 s⁻¹
